B1: PEX5 peptide 240-255 (Peroxisomal targeting signal 1 receptor), 16-mer library wild type / PEX14 Pex14 (PEX14 PEX14, residues 16-84) (parent)
chain 1: AEQWAAEFIQQQGTSD
chain 2: TPGSENVLPREPLIATAVKFLQNSRVRQSPLATRRAFLKKKGLTDEEIDMAFQQSGTAADEPSSLGPAT

Variants of: B1
METHOD: proteomic peptide phage display deep mutational scan (ProP-PD DMS): M13 P8 16-mer library selected against immobilised GST-tagged bait for four days (rounds), NGS of the eluted pools per day and pseudo-replica
TEST_PARAMETERS: with PEX14 Pex14 (PEX14 PEX14, residues 16-84); bait immobilised on MaxiSorp plates (10 µg), library pre-cleared on GST, 2 h binding at 4 °C, five washes; one round per day, days 1-4; value from days 2 and 3; keep out of graded; scale: average fractional NGS count over selection days 2 and 3
ENDPOINT_NAME: screen value

mutation_annotation="chain 1 F8H" measured_value=0.000234
mutation_annotation="chain 1 S15M" measured_value=0.000166
mutation_annotation="chain 1 T14Y" measured_value=0.000275
mutation_annotation="chain 1 F8I" measured_value=9.8e-05
mutation_annotation="chain 1 S15N" measured_value=0
mutation_annotation="chain 1 Q10S" measured_value=0.00027
mutation_annotation="chain 1 E7M" measured_value=0.000317
mutation_annotation="chain 1 Q12R" measured_value=0
mutation_annotation="chain 1 A6Q" measured_value=0.000319
mutation_annotation="chain 1 Q11T" measured_value=0

Proceed to the following item.
What value of screen value has been reported for the following variant? chain 1 A5V 0.000326

Source listed as paper PMC12102759.
